Give pIC50 for every item shown.
- ASSAYED_SYSTEM: T1, Ab-1
- T1 construct: also called anti-CD28 scFv harbored in Ab-1
- METHOD_DESCRIPTION: competition ELISA, peptide titrated vs 1 nM Ab-1 binding plate-bound CD28
No end group written: not given here.
Note on pIC50: it is the negative log10 of concentration, concentration in mol/L.

Entry IDWCPRDLWVHCFA (cysteine pairing not given here; also: biotinylated, site not given here) [Peptide-10] ; pIC50 = 5.58

Entry EDWCPRDLWVHCFA (cysteine pairing not given here; also: biotinylated, site not given here) [Peptide-7] ; pIC50 = 6.52

Lab book: pIC50 of TDWCPRDLWVHCFA (cysteine pairing not given here; also: biotinylated, site not given here) [Peptide-16] noted as 6.23

Note to self: pIC50 recorded for ADWCPRDLWVHCFA (cysteine pairing not given here; also: biotinylated, site not given here) [Peptide-2] was 5.70

pIC50 for WDWCPRDLWVHCFA (cysteine pairing not given here; also: biotinylated, site not given here) [Peptide-17] is 5.55
